# System: Candida albicans SNY425 biofilm
# assay_name: biofilm OD600 relative to DMSO control (fraction of DMSO control); higher = more biofilm (less inhibition)
# condition: 40 µM; assay detail: sustained inhibition, 384-well, compound during adherence and 24 h growth
So basically: biofilm OD600 at 1 or higher? That is rule met. Lower than 1? That is rule not met.

For orientation, consider the following solved cases.
chemical_string	cat
CCN(CC)C(=S)SSC(=S)N(CC)CC	rule not met
Cc1c(OCC(F)(F)F)ccnc1C[S@@+]([O-])c1nc2ccccc2[nH]1	rule not met

Then this molecule:
Hi, just wondering whether `C=CC1=C(C)c2cc3[nH]c(cc4nc(cc5[nH]c(cc1n2)c(C)c5CCC(=O)O)C(CCC(=O)O)=C4C)c(C)c3C=C` shows biofilm OD600 of 1 or higher.
rule met

----------
Reported biofilm OD600 by item:
# System: Candida albicans SNY425 biofilm
# assay_name: biofilm OD600 relative to DMSO control (fraction of DMSO control); higher = more biofilm (less inhibition)
# condition: 12.5 µM; assay detail: sustained inhibition (MBIC series), 384-well, compound during adherence and 24 h growth
// response body must contain only the number

compound	measure	endpoint_result
O=C([O-])C(O)[C@H](O)[C@@H](O)[C@H](O)[C@H](O)CO.O=C([O-])C(O)[C@H](O)[C@@H](O)[C@H](O)[C@H](O)CO.[Ca+2] (stereo not given in full) [calcium gluceptate]	biofilm OD600	1.02

Give the measured biofilm OD600 of CCN(CC)C(=S)SSC(=S)N(CC)CC [disulfiram] .
1

Try COC(=O)C1=C(C)NC(C)=C(C(=O)OCC(C)C)C1c1ccccc1[N+](=O)[O-] (stereo not given) [nisoldipine] next.
0.989

Try COCCOC(=O)C1=C(C)NC(C)=C(C(=O)OC(C)C)C1c1cccc([N+](=O)[O-])c1 (stereo not given) [nimodipine] next.
1.01

Try C[C@@H]1CC[C@H]2[C@@H](C)C(=O)O[C@@H]3O[C@@]4(C)CC[C@@H]1[C@]32OO4 [artemisinin] next.
1.01

----------
Reported biofilm OD600 by item:
# System: Candida albicans SNY425 biofilm
# assay_name: biofilm OD600 relative to DMSO control (fraction of DMSO control); higher = more biofilm (less inhibition)
# condition: 40 µM; assay detail: sustained inhibition, 384-well, compound during adherence and 24 h growth
// response body must contain only the number

In the examples that follow, each entry is paired with its recorded biofilm OD600.
chemical_string	target_entity	biofilm OD600
Nc1ccc(S(=O)(=O)Nc2ccnn2-c2ccccc2)cc1	Candida albicans SNY425 biofilm	1.01
N[C@@H](C(=O)N[C@@H]1C(=O)N2C(C(=O)O)=C(Cl)CS[C@H]12)c1ccccc1	Candida albicans SNY425 biofilm	0.983

Shifting focus to the compound that follows.
Could you share what biofilm OD600 was measured for `Cc1cc2c(s1)Nc1ccccc1N=C2N1CCN(C)CC1` , tested on Candida albicans SNY425 biofilm?
0.974
